# experimentalTarget: TrkA G595R (Homo sapiens, UniProt P04629, G595R)
# Sequence (P04629 33-796 G595R): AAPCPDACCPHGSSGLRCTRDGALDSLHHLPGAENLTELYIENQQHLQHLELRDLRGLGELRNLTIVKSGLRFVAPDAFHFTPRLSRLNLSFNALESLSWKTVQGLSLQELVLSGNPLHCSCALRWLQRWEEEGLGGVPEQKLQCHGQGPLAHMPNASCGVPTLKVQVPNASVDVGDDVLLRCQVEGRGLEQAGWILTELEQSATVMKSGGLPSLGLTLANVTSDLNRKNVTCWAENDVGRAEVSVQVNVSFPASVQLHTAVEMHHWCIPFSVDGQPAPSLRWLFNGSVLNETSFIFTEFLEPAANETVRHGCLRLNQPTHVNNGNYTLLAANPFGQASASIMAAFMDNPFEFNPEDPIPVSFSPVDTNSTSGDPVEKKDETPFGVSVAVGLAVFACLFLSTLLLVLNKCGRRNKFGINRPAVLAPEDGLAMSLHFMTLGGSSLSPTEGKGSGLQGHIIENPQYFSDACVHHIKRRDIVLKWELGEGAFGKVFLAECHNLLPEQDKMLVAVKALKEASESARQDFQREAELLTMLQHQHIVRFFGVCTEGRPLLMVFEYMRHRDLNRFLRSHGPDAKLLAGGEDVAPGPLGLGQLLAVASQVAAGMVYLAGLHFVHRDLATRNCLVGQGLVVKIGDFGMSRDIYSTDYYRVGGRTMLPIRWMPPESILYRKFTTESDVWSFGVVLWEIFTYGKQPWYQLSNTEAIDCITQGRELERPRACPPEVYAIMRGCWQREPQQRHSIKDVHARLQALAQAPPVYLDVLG
# procedureDetails: Trk enzyme assay ([33P] incorporation into poly-EAY)
# Assay type: biochemical
# settings: mutant TrkA G595R enzyme; 22° C., 60 minutes
valueType: IC50 (nM)

a = O=C(Nc1cnn2ccc(N3CCC[C@@H]3c3cc(F)ccc3F)nc12)N1CC(O)C1
b = C[C@H]1CNC(=O)c2cnn3ccc(nc23)N2CCC[C@@H]2c2cc(F)cn(c2=O)C1
c = O=C1OCCOc2ncc(F)cc2[C@H]2CCCN2c2ccn3ncc1c3n2
input: Returns the items ordered by IC50, from maximum to minimum. Would you mind listing the labels in the order requested?
output: a, b, c
(a: 84.6 nM, b: 3.3 nM, c: 1.5 nM)

====

Item-by-item account of IC50
# experimentalTarget: TrkA V573M (Homo sapiens, UniProt P04629, V573M)
# Sequence (P04629 33-796 V573M): as the sequence (P04629 33-796 G595R) above, with V541M, R563G counted along it
# procedureDetails: Trk enzyme assay ([33P] incorporation into poly-EAY)
# Type: biochemical
# settings: mutant TrkA V573M enzyme; 22° C., 60 minutes

- compoundSmiles: "CC1(C)CNC(=O)c2cnn3ccc(nc23)N2CCC[C@@H]2c2cc(F)cnc2OC1"
  IC50: "< 5 nM"
- compoundSmiles: "O=C1NCCCOc2ccc(F)cc2[C@H]2CCCN2c2ccn3ncc1c3n2"
  IC50: "< 5 nM"
- compoundSmiles: "O=C1NCCCOc2ncc(F)cc2[C@H]2CCCN2c2ccn3ncc1c3n2"
  IC50: "< 5 nM"

Kindly review the next compound as well.
input: Can you look up the measured IC50 of O=C1OCCOc2ncc(F)cc2[C@H]2CCCN2c2ccn3ncc1c3n2 for me?
output: < 5 nM

====

# experimentalTarget: TrkA G667C (Homo sapiens, UniProt P04629, G667C)
# Sequence (P04629 33-796 G667C): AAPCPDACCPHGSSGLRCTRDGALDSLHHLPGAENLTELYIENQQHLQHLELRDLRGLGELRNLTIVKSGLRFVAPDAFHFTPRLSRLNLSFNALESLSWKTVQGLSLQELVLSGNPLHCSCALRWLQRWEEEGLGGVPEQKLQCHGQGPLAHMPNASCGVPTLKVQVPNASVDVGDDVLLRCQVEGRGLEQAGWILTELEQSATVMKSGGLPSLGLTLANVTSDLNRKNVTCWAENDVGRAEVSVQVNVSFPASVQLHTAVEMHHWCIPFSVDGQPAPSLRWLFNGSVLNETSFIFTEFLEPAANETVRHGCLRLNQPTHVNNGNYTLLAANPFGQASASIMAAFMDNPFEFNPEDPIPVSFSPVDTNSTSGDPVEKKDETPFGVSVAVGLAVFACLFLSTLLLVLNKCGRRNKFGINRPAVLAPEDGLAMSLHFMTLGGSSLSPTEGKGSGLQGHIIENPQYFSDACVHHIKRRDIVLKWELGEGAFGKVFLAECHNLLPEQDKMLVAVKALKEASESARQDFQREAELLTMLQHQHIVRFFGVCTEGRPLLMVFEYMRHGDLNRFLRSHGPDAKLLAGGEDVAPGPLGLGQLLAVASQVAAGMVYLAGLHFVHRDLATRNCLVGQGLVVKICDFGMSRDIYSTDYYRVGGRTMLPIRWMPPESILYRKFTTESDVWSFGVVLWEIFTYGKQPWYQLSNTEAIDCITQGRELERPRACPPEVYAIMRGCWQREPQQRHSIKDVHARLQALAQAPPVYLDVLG
# procedureDetails: Trk enzyme assay ([33P] incorporation into poly-EAY)
# Format: biochemical
# settings: mutant TrkA G667C enzyme; 22° C., 60 minutes
valueType: IC50 (nM)

Look over these answered cases.
- molecule: "CC1(O)CN(C(=O)Nc2cnn3ccc(N4CCC[C@@H]4c4cc(F)ccc4Cl)nc23)C1 [Compound 10]"
  testResult: 89.2
- molecule: "O=C1NCCCOc2ccc(F)cc2[C@H]2CCCN2c2ccn3ncc1c3n2 [Compound 19]"
  testResult: 0.9

A = CC1(C)CNC(=O)c2cnn3ccc(nc23)N2CCC[C@@H]2c2cc(F)cnc2OC1 [Compound 25]
B = O=C1NC[C@@H](O)COc2ncc(F)cc2[C@H]2CCCN2c2ccn3ncc1c3n2 [Compound 17]
C = O=C(Nc1cnn2ccc(N3CCC[C@@H]3c3cc(F)ccc3F)nc12)N1CC(O)C1 [Compound 5]
D = C[C@H]1CNC(=O)c2cnn3ccc(nc23)N2CCC[C@@H]2c2cc(F)cn(c2=O)C1 [Compound 24]
E = CC1(NC(=O)c2cnn3ccc(N4CCC[C@@H]4c4cncc(F)c4)nc23)CC1 [Compound 15]
input: Place the items in sequence of falling IC50. Would you mind listing the labels in the order requested?
output: C, D, E, B, A

====

# experimentalTarget: TrkA G667S (Homo sapiens, UniProt P04629, G667S)
# Sequence (P04629 33-796 G667S): as the sequence (P04629 33-796 G595R) above, with R563G, G635S counted along it
# procedureDetails: Trk enzyme assay ([33P] incorporation into poly-EAY)
# Assay type: biochemical
# settings: mutant TrkA G667S enzyme; 22° C., 60 minutes
valueType: IC50 (nM)

- compound: "CC(=O)N1CCOc2ccc(F)cc2[C@H]2CCCN2c2ccn3ncc(c3n2)C1 [Compound 21]"
  IC50 / nM: 8.4
- compound: "O=C1OCCOc2ncc(F)cc2[C@H]2CCCN2c2ccn3ncc1c3n2 [Compound 22]"
  IC50 / nM: 0.9
- compound: "CONC(=O)c1cnn2ccc(N3CCC[C@@H]3c3cc(F)cnc3OC)nc12 [Compound 14]"
  IC50 / nM: 2.8
- compound: "NC(=O)c1cnn2ccc(N3CCC[C@@H]3c3cc(F)ccc3F)nc12 [Compound 12]"
  IC50 / nM: 3.6
- compound: "O=C1NC[C@H](O)COc2ccc(F)cc2[C@H]2CC(F)(F)CN2c2ccn3ncc1c3n2 [Compound 26]"
  IC50 / nM: 0.5

A = O=C(Nc1cnn2ccc(N3CCC[C@@H]3c3cc(F)ccc3F)nc12)N1CC(O)C1 [Compound 5]
B = O=C1NC[C@@H](O)COc2ncc(F)cc2[C@H]2CCCN2c2ccn3ncc1c3n2 [Compound 17]
C = C[C@H]1CNC(=O)c2cnn3ccc(nc23)N2CCC[C@@H]2c2cc(F)cn(c2=O)C1 [Compound 24]
D = O=C1NCCCOc2cccc(n2)[C@H]2CCCN2c2ccn3ncc1c3n2 [Compound 20]
E = O=C1NCCCOc2ncc(F)cc2[C@H]2CCCN2c2ccn3ncc1c3n2 [Compound 16]
input: Place the items in sequence of falling IC50. Would you mind listing the labels in the order requested?
output: A, C, D, B, E
